# credit: patent US20240286998A1

Each record here notes measured melting point.
Where a name gives a salt, the structure may show the parent alone.

compound: CCN(C)CC(=O)c1c[nH]c2ccc(F)cc12
melting point: 160.1 to 164.8 °C
//
compound: CN1CCC(c2c[nH]c3cc(F)c(F)cc23)C1 (centres unmarked)
melting point: 119.5 to 120.3 °C
//
compound: CN1CCC(c2c[nH]c3c(F)cccc23)C1 (centres unmarked)
melting point: 129 to 132.1 °C
//
compound: CCN(CCc1c[nH]c2ccc(F)cc12)C1CC1 (as salt: hydrochloride)
melting point: 219.7 to 220.1 °C
//
compound: CN(CCc1c[nH]c2ccc(F)cc12)C1CC1 (as salt: hydrochloride)
melting point: 218.8 to 219.3 °C

----------
tested-target: 5-HT2C (Homo sapiens (Human))
Sequence (P28335 whole entry, looked up): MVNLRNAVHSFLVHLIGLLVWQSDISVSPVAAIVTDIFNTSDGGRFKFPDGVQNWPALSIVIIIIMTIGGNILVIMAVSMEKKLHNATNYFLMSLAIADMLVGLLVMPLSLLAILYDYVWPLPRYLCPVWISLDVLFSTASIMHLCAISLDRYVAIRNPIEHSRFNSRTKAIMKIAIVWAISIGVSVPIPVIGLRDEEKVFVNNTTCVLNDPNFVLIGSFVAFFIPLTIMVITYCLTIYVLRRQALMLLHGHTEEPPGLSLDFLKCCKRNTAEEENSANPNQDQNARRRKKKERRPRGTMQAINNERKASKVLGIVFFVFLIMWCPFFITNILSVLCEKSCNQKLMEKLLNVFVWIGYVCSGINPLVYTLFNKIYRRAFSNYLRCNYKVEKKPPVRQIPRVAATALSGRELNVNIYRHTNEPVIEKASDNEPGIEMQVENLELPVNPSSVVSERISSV
method: 5-HT2C Gq-mediated calcium flux functional assay
Assay type: cell-based
Each record here notes measured EC50.

sample-smiles: CCN(C)CCc1c[nH]c2c(Br)cc(F)cc12
EC50, nM: 13.2

sample-smiles: CCN(CCc1c[nH]c2ccc(F)cc12)C(C)C
EC50, nM: 6.61

sample-smiles: CCCN(CC)CCc1c[nH]c2c(F)c(F)c(F)cc12
EC50, nM: 38.9

----------
Each record here notes measured half-life at 1 μM.
method: Metabolic stability in cryopreserved human hepatocytes
Assay type: in vitro ADME
stated-conditions: cryopreserved hepatocytes; human hepatocytes, 1 μM, 37° C.

compound: C=CCN1CC[C@]23c4c5ccc(O)c4O[C@H]2C(=O)CC[C@@]3(O)[C@H]1C5 [naloxone, reference compound]
half-life at 1 μM: 10 min
//
compound: CCC(C)N(C)CCc1c[nH]c2ccc(F)cc12 (stereo not drawn) [Example 3]
half-life at 1 μM: 11 min
//
compound: CCCN(CCc1c[nH]c2ccc(F)cc12)C(C)C [Example 4]
half-life at 1 μM: 13 min

----------
tested-target: 5-HT1A (Homo sapiens (Human), UniProt P08908)
method: 5-HT1A Gi/o-mediated cAMP inhibition, GloSensor assay
Format: cell-based
stated-conditions: cAMP inhibition, 0.2 μM isoproterenol; IA = Inactive
Each record here notes measured 5-HT1A-cAMP Emax (% 5-HT).

molecule: CCCN(C)CCc1c[nH]c2ccc(F)cc12
5-HT1A-cAMP Emax (% 5-HT): 85.8 ± 2.5 % 5-HT
--
molecule: CCCN(CCc1c[nH]c2ccc(F)cc12)C1CCC1
5-HT1A-cAMP Emax (% 5-HT): 100.7 ± 1.3 % 5-HT
--
molecule: CN1CCC[C@@H]1Cc1c[nH]c2ccc(F)cc12
5-HT1A-cAMP Emax (% 5-HT): 101.20 ± 1.7 % 5-HT
--
molecule: C=CCN(C)CCc1c[nH]c2ccc(F)cc12
5-HT1A-cAMP Emax (% 5-HT): 97.8 ± 2.7 % 5-HT
--
molecule: CCCN(CC)CC(=O)c1c[nH]c2ccc(F)cc12
5-HT1A-cAMP Emax (% 5-HT): 20.5 ± 1.4 % 5-HT
--
molecule: CN1CC(c2c[nH]c3ccc(F)cc23)C1
5-HT1A-cAMP Emax (% 5-HT): 64.0 ± 3.5 % 5-HT
--
molecule: CCC(C)N(C)CCc1c[nH]c2ccc(F)cc12 (centres unmarked)
5-HT1A-cAMP Emax (% 5-HT): 83.3 ± 5.7 % 5-HT
--
molecule: CCCN(CC)CCc1c[nH]c2ccc(F)cc12
5-HT1A-cAMP Emax (% 5-HT): 90.5 ± 1.8 % 5-HT
--
molecule: CN1CCC[C@H]1Cc1c[nH]c2ccc(F)cc12
5-HT1A-cAMP Emax (% 5-HT): 88.2 ± 3.6 % 5-HT
--
molecule: CCCN(CC)CCc1c[nH]c2cc(F)c(F)cc12
5-HT1A-cAMP Emax (% 5-HT): 89.1 ± 2.9 % 5-HT
--
molecule: CC(C)N(C)CCc1c[nH]c2ccc(F)cc12
5-HT1A-cAMP Emax (% 5-HT): 93.2 ± 4.7 % 5-HT
